Tested on: SK-OV-3
Assay: Cytotoxicity against human SKOV3 cells assessed as reduction in cell viability at 100 ug/ml after 24 hrs by MTT assay
Assay type: functional, cell-based
Activity calls are given as the source filed them. The calls are words filed in the database; no cut-off is given here.
property label: Activity

1) COc1cc2nc(Cl)nc(NS(=O)(=O)C3CC3)c2cc1OC = inactive
2) COc1cc2nc(Cl)nc(NS(=O)(=O)Cc3ccccc3)c2cc1OC = inactive
3) COc1cc2nc(N3CCCC3)nc(NS(=O)(=O)c3cccs3)c2cc1OC = inactive

* * *

Tested on: SK-OV-3
Test: Cytotoxicity against human SKOV3 cells assessed as reduction in cell viability after 24 hrs by MTT assay
Format: functional, cell-based
Conditions: SK-OV-3, 24 h
property label: IC50 (µg/mL)
Please state the figure in µg/mL; there is no need to write the unit.

Tell us which IC50 value is on record for COc1cc2nc(Cl)nc(NS(=O)(=O)c3ccc(C)cc3C)c2cc1OC 25.8

Tell us which IC50 value is on record for COc1cc2nc(N3CCOCC3)nc(NS(=O)(=O)c3cccc(C(F)(F)F)c3)c2cc1OC 50.5

Tell us which IC50 value is on record for COc1cc2nc(Cl)nc(NS(=O)(=O)c3cccc4c3OCO4)c2cc1OC 78.1

Tell us which IC50 value is on record for COc1ccc(S(=O)(=O)Nc2nc(Cl)nc3cc(OC)c(OC)cc23)cc1C 68.1

Tell us which IC50 value is on record for COc1cc2nc(N3CCCC3)nc(NS(=O)(=O)C3CC3)c2cc1OC 17.6

Tell us which IC50 value is on record for COc1cc([C@@H]2c3cc4c(cc3[C@@H](O[C@@H]3O[C@@H]5CO[C@@H](C)O[C@H]5[C@H](O)[C@H]3O)[C@H]3COC(=O)[C@H]23)OCO4)cc(OC)c1O [ETOPOSIDE] 3.84

Tell us which IC50 value is on record for COc1cc2nc(Cl)nc(NS(=O)(=O)c3cccs3)c2cc1OC 19.1

Tell us which IC50 value is on record for COc1cc2nc(N3CCCC3)nc(NS(=O)(=O)c3ccc(C)cc3)c2cc1OC 20

Tell us which IC50 value is on record for COc1cc2nc(N3CCOCC3)nc(NS(=O)(=O)C3CC3)c2cc1OC 32.1

Tell us which IC50 value is on record for COc1cc2nc(Cl)nc(NS(=O)(=O)c3cccc(C(F)(F)F)c3)c2cc1OC 32.3

Tell us which IC50 value is on record for COc1cc2nc(Cl)nc(NS(C)(=O)=O)c2cc1OC 88

Tell us which IC50 value is on record for COc1cc2nc(N3CCCC3)nc(NS(=O)(=O)c3cccc(C(F)(F)F)c3)c2cc1OC 22.1

Tell us which IC50 value is on record for COc1cc2nc(Cl)nc(NS(=O)(=O)c3cccc4ccccc34)c2cc1OC 95.3

Tell us which IC50 value is on record for COc1cc2nc(Cl)nc(NS(=O)(=O)c3ccccc3)c2cc1OC 9.23
